// data source = the supplement of paper PMC4840960

Test system: E18 rat cortical neuron-glia co-culture
Assay: fiber score / MBP score (myelination specific beyond OL differentiation) (ratio); higher = more myelination-specific MBP alignment
Settings: 5 µM; treatment time: 8 days (DIV5-DIV13)

| Compound | fiber score / MBP score |
| --- | --- |
| CCc1cccc2c3c([nH]c12)C(CC)(CC(=O)O)OCC3 (stereo not given) [Etodolac] | 1.38 |
| C[C@H]1C[C@H]2[C@@H]3CCC4=CC(=O)C=C[C@]4(C)[C@@]3(F)[C@@H](O)C[C@]2(C)[C@@]1(O)C(=O)CCl [Clobetasol] | 0.686 |
| CN1C2CCCC1CC(NC(=O)c1nn(C)c3ccccc13)C2 (stereo not given) [Granisetron] | 1.1 |
| CCOc1ccc2ccccc2c1C(=O)N[C@@H]1C(=O)N2[C@@H]1SC(C)(C)[C@@H]2C(=O)O [Nafcillin] | 0.777 |
| COc1ccc2c(c1)c(CC(=O)O)c(C)n2C(=O)c1ccc(Cl)cc1 [Indomethacin] | 0.877 |

====

System: E18 rat cortical neuron-glia co-culture
Experiment: fiber score / MBP score (myelination specific beyond OL differentiation) (ratio); higher = more myelination-specific MBP alignment
Conditions: 5 µM; treatment time: 8 days (DIV5-DIV13)
Where a name gives a salt, the structure may show the parent alone.
fiber score / MBP score by entry:

| Compound | fiber score / MBP score |
| --- | --- |
| NCc1ccc(S(N)(=O)=O)cc1 [Mafenide] | 0.912 |
| CN(C)[C@@H]1C(O)=C(C(N)=O)C(=O)[C@@]2(O)C(O)=C3C(=O)c4c(O)cccc4[C@@](C)(O)[C@H]3[C@H](O)[C@@H]12 | 0.668 |
| COc1cc(N)c(Cl)cc1C(=O)NC1CCN(CCCOc2ccc(F)cc2)CC1OC (stereo unspecified) [Cisapride] | 0.515 |
| Cn1ccnc1S | 0.312 |
| Nc1ccc(S(=O)(=O)c2ccc(N)cc2)cc1 | 0.925 |
| O=C1c2c(O)cc(O)cc2OC(c2ccc(O)c(O)c2)C1O (stereo unspecified) | 0.943 |
| CN1CCC(=C2c3ccccc3CCc3sccc32)CC1 | 0.636 |
| CC(C)[N+](C)(CCOC(=O)C1c2ccccc2Oc2ccccc21)C(C)C | 0.949 |
| Cc1ccc(C)c(OCCCC(C)(C)C(=O)O)c1 | 0.995 |
| CC(C)c1ccc2oc3nc(N)c(C(=O)O)cc3c(=O)c2c1 | 1.05 |
| CC1(C)S[C@@H]2[C@H](/N=C/N3CCCCCC3)C(=O)N2[C@H]1C(=O)O | 0.866 |
| NC(=O)N1c2ccccc2CC(=O)c2ccccc21 [Oxcarbazepine] | 1.17 |
| NC1CCN(c2nc3c(cc2F)c(=O)c(C(=O)O)cn3-c2ccc(F)cc2F)C1 (stereo unspecified) | 0.665 |
| CCC[C@@H]1C[C@@H](C(=O)N[C@@H]([C@H]2O[C@H](SC)[C@H](O)[C@@H](O)[C@H]2O)[C@@H](C)O)N(C)C1 | 0.914 |
| CCc1ccc(CCOc2ccc(CC3SC(=O)NC3=O)cc2)nc1 (stereo unspecified) | 0.501 |
| CN(C)CCCN1c2ccccc2CCc2ccccc21 | 0.517 |
| CC(C)NCC(O)COc1ccc(CCOCC2CC2)cc1 (stereo unspecified) | 0.615 |
| COc1cc(C[C@@H](CO)[C@H](CO)Cc2ccc(O)c(OC)c2)ccc1O | 0.777 |
| O=C(c1ccc(F)cc1)C1CCN(CCn2c(=S)[nH]c3ccccc3c2=O)CC1 | 0.605 |
| OCCOCCN1CCN(C(c2ccccc2)c2ccc(Cl)cc2)CC1 (stereo unspecified) [Hydroxyzine pamoate salt] | 0.28 |
| CN(C)[C@@H]1C(O)=C(C(N)=O)C(=O)[C@@]2(O)C(O)=C3C(=O)c4c(O)cccc4C[C@H]3C[C@@H]12 | 0.714 |
| O=[N+]([O-])c1cccc2cn[nH]c12 | 0.753 |
| C#C[C@]1(O)CC[C@H]2[C@@H]3CCC4=CC(=O)CC[C@@H]4[C@H]3CC[C@@]21CC | 1.12 |
| CN(CCOc1ccc(NS(C)(=O)=O)cc1)CCc1ccc(NS(C)(=O)=O)cc1 [Dofetilide] | 0.728 |
| CC(C)c1nc(CN(C)C(=O)N[C@H](C(=O)N[C@@H](Cc2ccccc2)C[C@H](O)[C@H](Cc2ccccc2)NC(=O)OCc2cncs2)C(C)C)cs1 | 0.623 |
| CC(=O)[C@H]1CC[C@H]2[C@@H]3CCC4=CC(=O)CC[C@]4(C)[C@H]3CC[C@]12C | 0.552 |
| CC(C)(C(=O)c1cccnc1)c1cccnc1 | 0.894 |
| CN1CCN2c3ncccc3Cc3ccccc3C2C1 (stereo unspecified) [Mirtazapine] | 1.07 |
| NC[C@H](O)c1ccc(O)c(O)c1 [Norepinephrine] | 0.756 |
| CN(C)CCCN1c2ccccc2CCc2ccc(Cl)cc21 | 0.899 |
| NC12CC3CC(CC(C3)C1)C2 | 0.883 |
| CCCCC(=O)O[C@H]1CC[C@H]2[C@@H]3CCc4cc(O)ccc4[C@H]3CC[C@]12C [Estradiol valerate] | 1.04 |
| O=C(O)COCCN1CCN(C(c2ccccc2)c2ccc(Cl)cc2)CC1 (stereo unspecified) | 0.681 |
| Fc1ccc([C@@H]2CCNC[C@H]2COc2ccc3c(c2)OCO3)cc1 | 1.08 |
| Cc1cnc(NC(=O)C2=C(O)c3ccccc3S(=O)(=O)N2C)s1 | 1 |
| Cc1ccc(-c2cc(C(F)(F)F)nn2-c2ccc(S(N)(=O)=O)cc2)cc1 | 1.01 |

====

myelination by entry:
Test system: E18 rat cortical neuron-glia co-culture
Test: myelination (MBP fiber length per Olig2+ nucleus), % of 1 µM DAPT response (DMSO = 0) (% of DAPT); higher = more myelination, active = 50 or more
Conditions: 1 µM; treatment time: 8 days (DIV5-DIV13)

| Molecule | Test Target | myelination |
| --- | --- | --- |
| OCCOCCN1CCN(C2=Nc3ccccc3Sc3ccccc32)CC1 [Quetiapine hemifumarate] | E18 rat cortical neuron-glia co-culture | -10 |
| Nc1ccc(S(=O)(=O)c2ccc(N)cc2)cc1 | E18 rat cortical neuron-glia co-culture | -3.07 |
| Cc1cn([C@H]2C=C[C@@H](CO)O2)c(=O)[nH]c1=O | E18 rat cortical neuron-glia co-culture | -12.8 |
| COCCOC(=O)C1=C(C)NC(C)=C(C(=O)OC(C)C)C1c1cccc([N+](=O)[O-])c1 (configuration not stated) | E18 rat cortical neuron-glia co-culture | -18.6 |
| CCc1nn(CCCN2CCN(c3cccc(Cl)c3)CC2)c(=O)n1CCOc1ccccc1 | E18 rat cortical neuron-glia co-culture | 2.86 |
| CN(C)CC/C=C1/c2ccccc2COc2ccc(CC(=O)O)cc21 | E18 rat cortical neuron-glia co-culture | -7.93 |
| COc1ccccc1N1CCN(CC(O)COc2cccc3ccccc23)CC1 (configuration not stated) | E18 rat cortical neuron-glia co-culture | -33.5 |
| CC(=O)[C@@]1(O)CC[C@H]2[C@@H]3C[C@H](C)C4=CC(=O)C=C[C@]4(C)[C@@]3(F)[C@@H](O)C[C@@]21C | E18 rat cortical neuron-glia co-culture | -5.67 |
| CCn1cc(C(=O)O)c(=O)c2cc(F)c(N3CCN(C)CC3)cc21 | E18 rat cortical neuron-glia co-culture | -8.57 |
| Nc1nc2ccc(OC(F)(F)F)cc2s1 | E18 rat cortical neuron-glia co-culture | -26.1 |
| CC[C@H]1OC(=O)[C@H](C)[C@@H](O[C@H]2C[C@@](C)(OC)[C@@H](O)[C@H](C)O2)[C@H](C)[C@@H](O[C@@H]2O[C@H](C)C[C@H](N(C)C)[C@H]2O)[C@](C)(O)C[C@@H](C)CN(C)[C@H](C)[C@@H](O)[C@]1(C)O | E18 rat cortical neuron-glia co-culture | -7.57 |
| CC(C)[C@H]1CC[C@H](C(=O)N[C@H](Cc2ccccc2)C(=O)O)CC1 [Nateglinide] | E18 rat cortical neuron-glia co-culture | -12.6 |
| CNC(=C[N+](=O)[O-])NCCSCc1csc(CN(C)C)n1 | E18 rat cortical neuron-glia co-culture | -8.02 |
| O=C1CCC(N2C(=O)c3ccccc3C2=O)C(=O)N1 (configuration not stated) [Thalidomide] | E18 rat cortical neuron-glia co-culture | 1.07 |
| CNS(=O)(=O)Cc1ccc2[nH]cc(CCN(C)C)c2c1 | E18 rat cortical neuron-glia co-culture | -5.51 |
| Cc1sc(N)c(C(=O)c2cccc(C(F)(F)F)c2)c1C | E18 rat cortical neuron-glia co-culture | -18.7 |
| CNCCC=C1c2ccccc2CCc2ccccc21 | E18 rat cortical neuron-glia co-culture | -1.74 |

====

Tested on: E18 rat cortical neuron-glia co-culture
Assay: myelination (MBP fiber length per Olig2+ nucleus), % of 1 µM DAPT response (DMSO = 0) (% of DAPT); higher = more myelination, active = 50 or more
Settings: 1 µM; treatment time: 8 days (DIV5-DIV13)
So basically, the class depends on measured myelination, and the ranges are band 1 (below -10), band 2 (-10 to below 0.2), band 3 (0.2 or more)

| Molecule | Test Target | Label Value |
| --- | --- | --- |
| NC(Cc1cc(I)c(Oc2cc(I)c(O)c(I)c2)c(I)c1)C(=O)O (centres undefined) [Thyroxine] | E18 rat cortical neuron-glia co-culture | band 2 |
| Nc1ccc2cn[nH]c2c1 [6-Aminoindazole] | E18 rat cortical neuron-glia co-culture | band 1 |
| COc1ccccc1OCC(O)COC(N)=O (centres undefined) [Methocarbamol] | E18 rat cortical neuron-glia co-culture | band 2 |
| c1ccc2c(c1)CCCC2C1=NCCN1 (centres undefined) [Tyzine] | E18 rat cortical neuron-glia co-culture | band 2 |
| C#C[C@]1(O)CC[C@H]2[C@@H]3CCc4cc(OC)ccc4[C@H]3CC[C@@]21C [Mestranol] | E18 rat cortical neuron-glia co-culture | band 2 |
| CC(C)(C(=O)O)c1ccc(C(O)CCCN2CCC(C(O)(c3ccccc3)c3ccccc3)CC2)cc1 (centres undefined) [Fexofenadine] | E18 rat cortical neuron-glia co-culture | band 3 |
| CN(C)CCOC(c1ccc(Cl)cc1)c1ccccn1 (centres undefined) [Carbinoxamine] | E18 rat cortical neuron-glia co-culture | band 3 |
| CCCC1O[C@@H]2C[C@H]3[C@@H]4CCC5=CC(=O)C=C[C@]5(C)[C@H]4[C@@H](O)C[C@]3(C)[C@]2(C(=O)CO)O1 (some centres undefined) [Budesonide] | E18 rat cortical neuron-glia co-culture | band 3 |
| CN(C)CCOC(c1ccccc1)c1ccccc1 [Diphenhydramine] | E18 rat cortical neuron-glia co-culture | band 1 |
| CN(C)CCC(c1ccc(Cl)cc1)c1ccccn1 (centres undefined) [Chlorpheniramine] | E18 rat cortical neuron-glia co-culture | band 2 |
| C[C@]12CCC(=O)C=C1CC[C@@H]1[C@@H]2[C@@H](O)C[C@@]2(C)[C@H]1CC[C@]2(O)C(=O)COC(=O)CCC(=O)O [Cortisol succinate] | E18 rat cortical neuron-glia co-culture | band 3 |
| Fc1cncnc1 [5-fluoropyrimidine] | E18 rat cortical neuron-glia co-culture | band 1 |
| CC(C(O)c1ccc(O)cc1)N1CCC(Cc2ccccc2)CC1 (centres undefined) [Ifenprodil] | E18 rat cortical neuron-glia co-culture | band 1 |
